Molecular target: Jun bZIP R259A;Fos bZIP R146A (human;human, UniProt P05412;P01100 252-315;137-200, R259A|R146A)
Sequence (P05412 252-315 R259A, chain 1 of 2): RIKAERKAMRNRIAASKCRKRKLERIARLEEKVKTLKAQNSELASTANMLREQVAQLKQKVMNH
Sequence (P01100 137-200 R146A, chain 2 of 2): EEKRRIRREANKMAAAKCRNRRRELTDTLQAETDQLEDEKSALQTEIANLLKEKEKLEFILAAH
Assay: ITC
endpoint: Kd (nM)

TRE duplex 15-mer (dsDNA) DNA 1: CGCGTGACTCACCCC DNA 2: GGGGTGAGTCACGCG: 2260
